system: DLK; construct: gene MAP3K12; details: concentration: 1 μM, replicates: in singlicate; n = 1;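 also: KINOMEscan kinase panel screen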
Output met for records whose %Inh is lower than 30%, not met for records at or above 30%.

                                   compound  assigned_class
0  CC(C)Oc1ccc2c(-c3ccnc(Nc4ccc(N5CCN(C)CC5)cc4)n3)cnn2n1 [GW696155]         not met
1  c1ccc(-c2cc(-c3c[nH]nc3-c3ccccn3)ccn2)cc1 [GW576604]             met
2  COc1ccc(S(=O)(=O)NC2CCN(c3cc(C)nc(Nc4cccc(C#N)c4)n3)CC2)cc1.O=C(O)C(F)(F)F [GSK1653539]             met
3  COc1ccc(Nc2ncc(C#N)c(Nc3ccccc3C(N)=O)n2)cc1N1CCN(C)CC1.Cl [GSK1558669]         not met
4  Cc1nnc(-c2ccc3ncc(-c4ccc(S(C)=O)cc4)n3c2)o1 (stereo not shown)             met
5  COc1ccc(CNC(=O)NC2CCN(c3ccnc(Nc4ccc(OC)cc4)n3)C2)cc1 (stereo not shown) [GSK1379727]         not met
6  Cc1ccc(C(=O)NCC(N)=O)cc1-n1c(C)cc(OCc2ccc(F)cc2F)c(Br)c1=O             met
